src = paper PMC11653366

# TARGET UNDER TEST: Src SH3 84-145 (Homo sapiens, UniProt P12931)
# MEASUREMENT NOTES: fluorescence anisotropy
pKd: −log10 of the molar value.

BINDER: APTYSPPPPP [F*-p40]
pKd: < 3.00
